Origin of the recorded values: PubChem BioAssay AID1963978

system: 616215-338-R-J1-PDC spheroids with HUVEC/MSC, viability; test: Anticancer human tumor 616215-338-R-J1-PDC patient-derived colon adenocarcinoma cell line growth inhibition [PI3K]; conditions: second compound 0.316 µM; first compound 0.0316 µM; active compounds read low;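 further: spheroids exposed to agents for seven days before the viability read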
Please provide measured viability, T/C for the entries that follow.
Express your answer in %, writing the number without its unit.

Simply: Cn1nccc1Nc1nccc(-c2ccn(C(CO)c3ccc(Cl)c(F)c3)c(=O)c2)n1 (stereo unspecified) + CC(Nc1ccc2c(c1)OCCn1cc(N3C(=O)OCC3C(F)F)nc1-2)C(N)=O , 616215-338-R-J1-PDC spheroids with HUVEC/MSC, viability, viability, T/C = 92.5

viability, T/C for 616215-338-R-J1-PDC spheroids with HUVEC/MSC, viability with input CC(=O)c1c(C)c2cnc(Nc3ccc(N4CCNCC4)cn3)nc2n(C2CCCC2)c1=O + CC(Nc1ncnc2nc[nH]c12)c1cc2cccc(Cl)c2c(=O)n1-c1ccccc1 equals 106

Case CCCS(=O)(=O)Nc1ccc(F)c(C(=O)c2c[nH]c3ncc(-c4ccc(Cl)cc4)cc23)c1F + Cc1nc(NC(=O)N2CCCC2C(N)=O)sc1-c1ccnc(C(C)(C)C(F)(F)F)c1 , 616215-338-R-J1-PDC spheroids with HUVEC/MSC, viability, viability, T/C recorded as 95.3

Entry CC(C)n1nc(-c2ccc3oc(N)nc3c2)c2c(N)ncnc21 + CC(Nc1ccc2c(c1)OCCn1cc(N3C(=O)OCC3C(F)F)nc1-2)C(N)=O under 616215-338-R-J1-PDC spheroids with HUVEC/MSC, viability had viability, T/C of 94.6

Cn1ncc(Cl)c1-c1cc(C(=O)NC(CN)Cc2cccc(F)c2)sc1Cl (stereo unspecified) + Cc1nc(NC(=O)N2CCCC2C(N)=O)sc1-c1ccnc(C(C)(C)C(F)(F)F)c1 on 616215-338-R-J1-PDC spheroids with HUVEC/MSC, viability gives viability, T/C = 99.4

Recorded viability, T/C for CC(C)n1nc(-c2ccc3oc(N)nc3c2)c2c(N)ncnc21 + CC(Nc1ncnc2nc[nH]c12)c1cc2cccc(Cl)c2c(=O)n1-c1ccccc1 on 616215-338-R-J1-PDC spheroids with HUVEC/MSC, viability was 101

Record CNC(=O)c1ccc(N2C(=S)N(c3ccc(C#N)c(C(F)(F)F)c3)C(=O)C2(C)C)cc1F + CC(Nc1ccc2c(c1)OCCn1cc(N3C(=O)OCC3C(F)F)nc1-2)C(N)=O / 616215-338-R-J1-PDC spheroids with HUVEC/MSC, viability, viability, T/C recorded as 95

Note to self: viability, T/C of Cn1nccc1Nc1nccc(-c2ccn(C(CO)c3ccc(Cl)c(F)c3)c(=O)c2)n1 (stereo unspecified) + Cc1nc(NC(=O)N2CCCC2C(N)=O)sc1-c1ccnc(C(C)(C)C(F)(F)F)c1 with 616215-338-R-J1-PDC spheroids with HUVEC/MSC, viability was 96.7

Tested on 616215-338-R-J1-PDC spheroids with HUVEC/MSC, viability: CC(Cn1ccc(-c2ccc(C#N)c(Cl)c2)n1)NC(=O)c1cc(C(C)O)[nH]n1 (stereo unspecified) + CC(Nc1ncnc2nc[nH]c12)c1cc2cccc(Cl)c2c(=O)n1-c1ccccc1 . Observed viability, T/C: 93.1

Noted viability, T/C for CC(C)NCC(C(=O)N1CCN(c2ncnc3c2C(C)CC3O)CC1)c1ccc(Cl)cc1 (stereo unspecified) + COc1c(OCCCN2CCOCC2)ccc2c3n(c(=NC(=O)c4cnc(N)nc4)nc12)CCN3 , tested on 616215-338-R-J1-PDC spheroids with HUVEC/MSC, viability: 38.3

Item Cn1ncnc1[C@H]1c2n[nH]c(=O)c3cc(F)cc(c23)N[C@@H]1c1ccc(F)cc1 + CC(Nc1ncnc2nc[nH]c12)c1cc2cccc(Cl)c2c(=O)n1-c1ccccc1 was tested on 616215-338-R-J1-PDC spheroids with HUVEC/MSC, viability; the reported viability, T/C is 96.9
